# Measurement target: human metabotropic Glutamate 4 receptor (mGluR4) (Homo sapiens (Human), UniProt Q14833)
# Sequence (Q14833 33-912): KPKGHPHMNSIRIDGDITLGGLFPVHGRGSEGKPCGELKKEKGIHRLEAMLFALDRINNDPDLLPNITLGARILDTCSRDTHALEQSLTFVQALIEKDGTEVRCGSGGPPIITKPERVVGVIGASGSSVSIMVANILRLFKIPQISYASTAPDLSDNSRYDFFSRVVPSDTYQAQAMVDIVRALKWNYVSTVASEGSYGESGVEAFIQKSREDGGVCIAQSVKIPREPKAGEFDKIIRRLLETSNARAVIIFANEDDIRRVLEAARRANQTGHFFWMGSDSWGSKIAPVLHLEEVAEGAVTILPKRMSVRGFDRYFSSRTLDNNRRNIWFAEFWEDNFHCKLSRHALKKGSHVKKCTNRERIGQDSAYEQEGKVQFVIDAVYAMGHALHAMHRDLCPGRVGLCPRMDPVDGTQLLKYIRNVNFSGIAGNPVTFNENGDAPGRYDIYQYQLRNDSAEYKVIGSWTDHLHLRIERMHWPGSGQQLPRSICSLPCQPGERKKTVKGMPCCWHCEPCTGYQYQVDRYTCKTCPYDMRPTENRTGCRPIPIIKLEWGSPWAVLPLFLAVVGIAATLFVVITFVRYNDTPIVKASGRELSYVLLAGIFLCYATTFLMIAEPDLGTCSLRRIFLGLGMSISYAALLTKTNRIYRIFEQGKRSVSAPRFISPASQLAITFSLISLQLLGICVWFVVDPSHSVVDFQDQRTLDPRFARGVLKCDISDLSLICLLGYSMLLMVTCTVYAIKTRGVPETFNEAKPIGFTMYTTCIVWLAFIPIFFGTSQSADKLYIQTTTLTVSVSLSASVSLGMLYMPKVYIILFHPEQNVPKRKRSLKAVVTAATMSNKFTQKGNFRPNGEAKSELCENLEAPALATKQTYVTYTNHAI
# Assay overview: Assay A: in vitro testing of mGluR4 potency (glutamate-induced cAMP lowering, HTRF cAMP)
# Protocol conditions: HEK293 cells overexpressing human mGluR4; 10 uM L-glutamic acid, 1 uM forskolin; compounds of the present invention
Measured IC50, listed per entry.
Endpoint name: IC50 (nM)

- Molecule: "CO[C@H](C)[C@H](NC(=O)c1cnc(C)cn1)c1nc2c(C)c(Br)ccc2n1C [Example 88]"
  Reported measurement: 3
- Molecule: "CCn1c([C@@H](NC(=O)c2cnc(C(F)F)cn2)C2CC2)nc2c(C)c(C#N)ccc21 [Example 33]"
  Reported measurement: 4
- Molecule: "COc1c(Cl)ccc2c1nc([C@@H](NC(=O)c1cnc(C)cn1)C1CC1)n2C [Example 112]"
  Reported measurement: 15
- Molecule: "COCCn1c(C(NC(=O)c2cnc(C)cn2)C2CCOC2)nc2cc(Cl)ccc21 (single isomer, unassigned) [Example 91-1]"
  Reported measurement: 32
- Molecule: "CCn1c(C(NC(=O)c2cnc(C)cn2)C2CCOC2)nc2cc(F)c(F)cc21 (single isomer, unassigned) [Example 159]"
  Reported measurement: 30
- Molecule: "COCCn1c([C@@H](NC(=O)c2cnc(C)cn2)[C@H]2CCCO2)nc2cc(C(F)(F)F)ccc21 (single isomer, unassigned) [Example 71]"
  Reported measurement: 13
- Molecule: "CO[C@H](C)[C@H](NC(=O)c1cnc(C)cn1)c1nc2cc(Br)c(F)cc2n1C [Example 26]"
  Reported measurement: 7

###

Measured log10 of IC50, listed per entry.
# Measurement target: UniProtKB Q14833
# Assay overview: Assay A: in vitro testing of mGluR4 potency (glutamate-induced cAMP lowering, HTRF cAMP)
# Protocol conditions: HEK293 cells overexpressing human mGluR4; 10 uM L-glutamic acid, 1 uM forskolin; compounds of the present invention
Endpoint name: log10 of IC50 (log10 of the value in nM)

- Compound: "CCn1c([C@@H](NC(=O)c2cnc(C)cn2)C2CC2)nc2cc(OC(F)(F)F)ccc21"
  Reported measurement: 0.30
- Compound: "Cc1cnc(C(=O)N[C@H](c2nc3cc(C(F)(F)F)ccc3n2C)C2(O)CCC2)cn1"
  Reported measurement: 0.95
- Compound: "CCn1c([C@@H](NC(=O)c2cnc(C)cn2)[C@]2(O)CCCOC2)nc2ccc(F)cc21"
  Reported measurement: 1.48
- Compound: "Cc1cnc(C(=O)N[C@H](c2nc3cc(C(F)(F)F)ccc3n2C)[C@]2(O)CCCOC2)cn1"
  Reported measurement: 1.20
- Compound: "COCCn1c(C(NC(=O)c2cnc(C)cn2)C2CCCO2)nc2cc(C(F)(F)F)ccc21 (single isomer, unassigned) [Example 71-2]"
  Reported measurement: 0.48
- Compound: "O=C(N[C@H](c1nc2cc(F)ccc2n1CC(F)F)C1CC1)c1cnc(C(F)F)cn1"
  Reported measurement: 0.60
- Compound: "CO[C@H](C)[C@H](NC(=O)c1cnc(C)cn1)c1nc2cc(OC(F)(F)F)ccc2n1C1CC1"
  Reported measurement: 1.15
- Compound: "CCn1c(C(NC(=O)c2cnc(C)cn2)C2CCOC2)nc2ccc(Cl)cc21 (single isomer, unassigned) [Example 163]"
  Reported measurement: 1.43
- Compound: "COCCn1c([C@@H](NC(=O)c2cnc(C(F)F)cn2)[C@@H](C)OC)nc2cc(OC(F)(F)F)ccc21"
  Reported measurement: 0.00
- Compound: "CCn1c([C@@H](NC(=O)c2cnc(C)cn2)[C@]2(O)CCOC2)nc2cc(Cl)ccc21"
  Reported measurement: 1.92
- Compound: "O=C(N[C@@H](CC1CC1)c1nc2cc(F)ccc2n1C1CC1)c1cnc(C(F)F)cn1"
  Reported measurement: 1.18
- Compound: "Cn1c([C@@H](NC(=O)c2cnc(C(F)F)cn2)[C@H]2CCCO2)nc2cc(OC(F)(F)F)ccc21"
  Reported measurement: 1.23
- Compound: "COCCn1c([C@@H](NC(=O)c2cnc(C)cn2)[C@H]2CCOC2)nc2cc(C(F)(F)F)ccc21"
  Reported measurement: 1.08
- Compound: "Cc1cnc(C(=O)N[C@H](c2nc3cc(F)ccc3n2C2CC2)C2CC2)cn1"
  Reported measurement: 1.26
- Compound: "COCCn1c([C@@H](NC(=O)c2cnc(C)cn2)C2CC2)nc2cc(F)ccc21"
  Reported measurement: 0.85

###

# Measurement target: human metabotropic Glutamate 4 receptor (mGluR4) (Homo sapiens (Human))
# Assay overview: Assay A: in vitro testing of mGluR4 potency (glutamate-induced cAMP lowering, HTRF cAMP)
# Protocol conditions: HEK293 cells overexpressing human mGluR4; 10 uM L-glutamic acid, 1 uM forskolin; compounds of the present invention
pIC50: −log10 of the molar value.
Measured pIC50, listed per entry.

- Molecule: "CCn1c(C(NC(=O)c2cnc(C)cn2)C2CCOC2)nc2cc(OC(F)(F)F)ccc21 (single isomer, unassigned) [Example 70-2]"
  pIC50: 7.70
- Molecule: "Cc1cnc(C(=O)N[C@H](c2nc3ccc(Cl)cc3n2CC(F)F)C2CC2)cn1"
  pIC50: 8.22
- Molecule: "COCCn1c([C@@H](NC(=O)c2cnc(C)cn2)[C@H]2CCOC2)nc2cc(OC(F)(F)F)ccc21"
  pIC50: 8.05
- Molecule: "Cc1cnc(C(=O)N[C@H](c2nc3cc(F)ccc3n2CC(F)F)C(C)C)cn1"
  pIC50: 8.05
- Molecule: "Cc1cnc(C(=O)N[C@H](c2nc3cc(Cl)ccc3n2C)[C@@H]2CCCO2)cn1"
  pIC50: 7.72
- Molecule: "COCCn1c([C@@H](NC(=O)c2cnc(C)cn2)C(C)(C)O)nc2cc(C(F)(F)F)ccc21"
  pIC50: 7.85

###

# Measurement target: human metabotropic Glutamate 4 receptor (mGluR4) (Homo sapiens (Human), UniProt Q14833)
# Assay overview: Assay A: in vitro testing of mGluR4 potency (glutamate-induced cAMP lowering, HTRF cAMP)
# Protocol conditions: HEK293 cells overexpressing human mGluR4; 10 uM L-glutamic acid, 1 uM forskolin; compounds of the present invention
Measured IC50, listed per entry.

- Compound string: "COCCn1c([C@@H](NC(=O)c2cnc(C)cn2)C2CC2)nc2cc(Cl)c(F)cc21"
  Measurement target: "human metabotropic Glutamate 4 receptor (mGluR4) (Homo sapiens (Human), UniProt Q14833)"
  Measure unit: "nM"
  IC50: 3
- Compound string: "Cc1cnc(C(=O)N[C@H](c2nc3cc(Cl)ccc3n2CC(F)F)C2CC2)cn1"
  Measurement target: "human metabotropic Glutamate 4 receptor (mGluR4) (Homo sapiens (Human), UniProt Q14833)"
  Measure unit: "nM"
  IC50: 3
- Compound string: "COCCn1c([C@@H](NC(=O)c2cnc(C(F)F)cn2)[C@H]2CCCO2)nc2cc(OC(F)(F)F)ccc21"
  Measurement target: "human metabotropic Glutamate 4 receptor (mGluR4) (Homo sapiens (Human), UniProt Q14833)"
  Measure unit: "nM"
  IC50: 6
- Compound string: "Cc1cnc(C(=O)N[C@H](c2nc3cc(F)ccc3n2CC(F)F)[C@@H](C)OC(F)F)cn1"
  Measurement target: "human metabotropic Glutamate 4 receptor (mGluR4) (Homo sapiens (Human), UniProt Q14833)"
  Measure unit: "nM"
  IC50: 18
- Compound string: "COCCn1c([C@@H](NC(=O)c2cnc(C)cn2)C2CC2)nc2cc(F)c(F)cc21"
  Measurement target: "human metabotropic Glutamate 4 receptor (mGluR4) (Homo sapiens (Human), UniProt Q14833)"
  Measure unit: "nM"
  IC50: 5
- Compound string: "CC(C)(O)[C@H](NC(=O)c1cnc(C(F)F)cn1)c1nc2cc(F)ccc2n1CC(F)F"
  Measurement target: "human metabotropic Glutamate 4 receptor (mGluR4) (Homo sapiens (Human), UniProt Q14833)"
  Measure unit: "nM"
  IC50: 38
- Compound string: "CCn1c([C@@H](NC(=O)c2cnc(C)cn2)[C@@H]2CCOC2)nc2cc(OC(F)(F)F)ccc21"
  Measurement target: "human metabotropic Glutamate 4 receptor (mGluR4) (Homo sapiens (Human), UniProt Q14833)"
  Measure unit: "nM"
  IC50: 20
- Compound string: "COCCn1c([C@@H](NC(=O)c2cnc(C(F)F)cn2)[C@@H]2CCCO2)nc2cc(OC(F)(F)F)ccc21"
  Measurement target: "human metabotropic Glutamate 4 receptor (mGluR4) (Homo sapiens (Human), UniProt Q14833)"
  Measure unit: "nM"
  IC50: 2

###

Measured log10 of IC50, listed per entry.
# Measurement target: human metabotropic Glutamate 4 receptor (mGluR4) (Homo sapiens (Human), UniProt Q14833)
# Assay overview: Assay A: in vitro testing of mGluR4 potency (glutamate-induced cAMP lowering, HTRF cAMP)
# Protocol conditions: HEK293 cells overexpressing human mGluR4; 10 uM L-glutamic acid, 1 uM forskolin; compounds of the present invention
Endpoint name: log10 of IC50 (log10 of the value in nM)

- Molecule: "Cc1cnc(C(=O)NC(c2nc3ccc(C(F)(F)F)cc3n2CC(F)F)C2CCOC2)cn1 (single isomer, unassigned) [Example 146]"
  Measurement target: "human metabotropic Glutamate 4 receptor (mGluR4) (Homo sapiens (Human), UniProt Q14833)"
  log10 of IC50: 1.20
- Molecule: "Cc1cnc(C(=O)N[C@H](c2nc3cc(C(F)(F)F)ccc3n2C)[C@H]2CCCO2)cn1 (single isomer, unassigned) [Example 56]"
  Measurement target: "human metabotropic Glutamate 4 receptor (mGluR4) (Homo sapiens (Human), UniProt Q14833)"
  log10 of IC50: 1.11
- Molecule: "CCn1c([C@@H](NC(=O)c2cnc(C)cn2)[C@]2(O)CCOC2)nc2ccc(C(F)(F)F)cc21 [Example 155]"
  Measurement target: "human metabotropic Glutamate 4 receptor (mGluR4) (Homo sapiens (Human), UniProt Q14833)"
  log10 of IC50: 1.80
- Molecule: "CCn1c([C@@H](NC(=O)c2cnc(C)cn2)[C@@]2(O)CCOC2)nc2cc(C(F)(F)F)ccc21 [Example 167]"
  Measurement target: "human metabotropic Glutamate 4 receptor (mGluR4) (Homo sapiens (Human), UniProt Q14833)"
  log10 of IC50: 1.74
- Molecule: "COCCn1c([C@@H](NC(=O)c2cnc(C(F)F)cn2)[C@@H]2CCOC2)nc2cc(OC(F)(F)F)ccc21 [Example 23]"
  Measurement target: "human metabotropic Glutamate 4 receptor (mGluR4) (Homo sapiens (Human), UniProt Q14833)"
  log10 of IC50: 0.60
- Molecule: "CCn1c([C@@H](NC(=O)c2cnc(C)cn2)C2CC2)nc2cc(F)ccc21 [Example 1]"
  Measurement target: "human metabotropic Glutamate 4 receptor (mGluR4) (Homo sapiens (Human), UniProt Q14833)"
  log10 of IC50: 0.60
- Molecule: "Cc1cnc(C(=O)N[C@H](c2nc3cc(F)ccc3n2C)C2CC2)cn1 [Example 51]"
  Measurement target: "human metabotropic Glutamate 4 receptor (mGluR4) (Homo sapiens (Human), UniProt Q14833)"
  log10 of IC50: 1.45
